// values below are reported Ratio (T1/2 Compound/T1/2 Reference)
- Assay Target: Recombinant human Cathepsin B (human, UniProt P07858 80-333)
- Test: cell-based or functional assay
Non-standard residues stand in square brackets, D forms with d. Primed or numbered codes have the meaning given here. No end group written: not given here. *: point of attachment. Propanoyl(3-maleimido) = O=C1C=CC(=O)N1CCC(=O)*; PEG4′ = tetraethylene glycol; Dab = NCC[C@H](N)C(=O)O; AF = auristatin F
Returns: the value as a bare number; no unit string appended.

Answered examples (3):
{"Binder": "{Ac-Cys-Propanoyl(3-maleimido)-PEG4′}-FKK(AF)F-OH [Compound 13, Ac-Cys-Mal-PEG4-Phe-Lys-Lys(AF)-Phe-OH]", "Measurement Type": "Ratio (T1/2 Compound/T1/2 Reference)", "Value": 0.15}
{"Binder": "FXKY (Ac-Cys-Ma-PEG5 at the N-terminus; citrulline (Cit); Lys(Mcc-DM1)) [Compound 27, Ac-Cys-Ma-PEG5-Phe-Cit-Lys(Mcc-DM1)-Tyr-OH]", "Measurement Type": "Ratio (T1/2 Compound/T1/2 Reference)", "Value": 0.005}
{"Binder": "R[PEG4′]FR[Dab](CO‑CPT)F-OH [Compound 10, Arg-PEG4-Phe-Arg-Dab(CO-CPT)-Phe-OH]", "Measurement Type": "Ratio (T1/2 Compound/T1/2 Reference)", "Value": 0.1}

Now for a further binder.
*Q* Write down Ratio (T1/2 Compound/T1/2 Reference) measured for item FKKFFK (Ac-Cys-Mal-PEG4 at the N-terminus; Lys(Mal-DM1)) [Compound 28, Ac-Cys-Mal-PEG4-Phe-Lys-Lys(Mal-DM1)-Phe-Phe-Lys-OH]
*A* 0.03
